Target sequence: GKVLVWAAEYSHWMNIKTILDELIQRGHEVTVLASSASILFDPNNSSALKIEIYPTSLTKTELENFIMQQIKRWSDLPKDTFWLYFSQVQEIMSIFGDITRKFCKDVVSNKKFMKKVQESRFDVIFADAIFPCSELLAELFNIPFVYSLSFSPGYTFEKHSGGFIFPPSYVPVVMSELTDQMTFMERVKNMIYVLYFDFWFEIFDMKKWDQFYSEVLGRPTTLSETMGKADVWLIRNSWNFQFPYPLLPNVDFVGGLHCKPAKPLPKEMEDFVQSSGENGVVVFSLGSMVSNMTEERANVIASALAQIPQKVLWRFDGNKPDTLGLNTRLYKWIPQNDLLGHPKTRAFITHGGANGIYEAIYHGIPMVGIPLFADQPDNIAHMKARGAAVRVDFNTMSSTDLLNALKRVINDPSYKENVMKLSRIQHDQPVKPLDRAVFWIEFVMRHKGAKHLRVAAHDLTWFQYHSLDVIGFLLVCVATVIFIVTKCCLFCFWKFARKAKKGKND
recordedEndpoint: pIC50
Field pIC50 (float): negative decimal logarithm of the concentration in molar.

(Q) # get_value(readout='pIC50', item= CCCCCCCCCC(=O)NC(COC(=O)NCC(=O)NCC1OC(n2ccc(=O)[nH]c2=O)C(O)C1O)C(O)c1ccccc1 (stereo not shown) [PP36] )
(A) 3.68

====

# assayedTarget: UGT2B7 (Homo sapiens)
# protocolNotes: Ki assays / kinetics and inhibition type, UGT2B7 (Example 1)
# conditionNotes: read-out: Ki′app (UDP-GlcUA); UGT2B7; UDP-GlcUA varied, p-nitrophenol
recordedEndpoint: pKi
Field pKi (float): negative decimal logarithm of the concentration in molar.

(Q) # get_value(readout='pKi', item= CCCCCCCCCC(=O)NC(COC(=O)NS(=O)(=O)OCC1OC(n2ccc(=O)[nH]c2=O)C(O)C1O)Cc1ccccc1 (stereo not shown) [PP55B] )
(A) 4.07

====

# assayedTarget: UGT1A10 (Homo sapiens, UniProt Q9HAW8)
# Sequence (Q9HAW8 26-530): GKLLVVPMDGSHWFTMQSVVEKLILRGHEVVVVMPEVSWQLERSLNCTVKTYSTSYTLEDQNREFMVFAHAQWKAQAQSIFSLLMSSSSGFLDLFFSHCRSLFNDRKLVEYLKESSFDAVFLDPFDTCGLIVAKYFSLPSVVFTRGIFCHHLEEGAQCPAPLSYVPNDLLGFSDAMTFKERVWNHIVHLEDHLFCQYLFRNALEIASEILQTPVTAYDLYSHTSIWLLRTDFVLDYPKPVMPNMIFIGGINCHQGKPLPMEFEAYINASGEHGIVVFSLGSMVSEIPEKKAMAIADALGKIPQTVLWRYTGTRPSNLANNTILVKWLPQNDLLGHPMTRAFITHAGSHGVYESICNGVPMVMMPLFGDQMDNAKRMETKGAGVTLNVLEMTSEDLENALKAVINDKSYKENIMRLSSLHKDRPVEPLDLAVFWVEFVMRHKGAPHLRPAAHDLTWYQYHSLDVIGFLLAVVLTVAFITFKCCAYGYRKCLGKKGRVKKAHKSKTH
# protocolNotes: IC50 assays, inhibition of UGT1A10 glucuronidation (Example 1)
# Assay type: biochemical
# Parameters: His; made in house; host or cells: baculovirus-infected Sf9 insect cells
# conditionNotes: 7-OH warfarin, read-out: IC50 (Substrate)
recordedEndpoint: IC50 (µM)
Value expressed in µM; do not type the unit.

(Q) # get_value(readout='IC50', item= CCCCCCCCCC(=O)NC(COC(=O)NS(=O)(=O)OCC1OC(n2ccc(=O)[nH]c2=O)C(O)C1O)Cc1ccccc1 (stereo not shown) [PP55B] )
(A) 11

====

# assayedTarget: UGT1A10 (Homo sapiens, UniProt Q9HAW8)
# protocolNotes: IC50 assays, inhibition of UGT1A10 glucuronidation (Example 1)
# Format: biochemical
# Parameters: His; made in house; host or cells: baculovirus-infected Sf9 insect cells
# conditionNotes: co-substrate ~2 x Km, 7-OH warfarin in excess, read-out: IC50 (UDP-GlcUA)
recordedEndpoint: IC50 (µM)
Value expressed in µM; do not type the unit.

(Q) # get_value(readout='IC50', item= CCCCCCCCCC(=O)NC(COC(=O)NS(=O)(=O)OCC1OC(n2ccc(=O)[nH]c2=O)C(O)C1O)Cc1ccccc1 (stereo not shown) [PP55B] )
(A) 4.9

meta.source: patent US20120184536A1
